Target: T1, human CD22 domain1-4-His (human, UniProt P20273 20-425)
T1 construct: also called hCD22 domain1-4-His; not shown: His tag
T1 sequence: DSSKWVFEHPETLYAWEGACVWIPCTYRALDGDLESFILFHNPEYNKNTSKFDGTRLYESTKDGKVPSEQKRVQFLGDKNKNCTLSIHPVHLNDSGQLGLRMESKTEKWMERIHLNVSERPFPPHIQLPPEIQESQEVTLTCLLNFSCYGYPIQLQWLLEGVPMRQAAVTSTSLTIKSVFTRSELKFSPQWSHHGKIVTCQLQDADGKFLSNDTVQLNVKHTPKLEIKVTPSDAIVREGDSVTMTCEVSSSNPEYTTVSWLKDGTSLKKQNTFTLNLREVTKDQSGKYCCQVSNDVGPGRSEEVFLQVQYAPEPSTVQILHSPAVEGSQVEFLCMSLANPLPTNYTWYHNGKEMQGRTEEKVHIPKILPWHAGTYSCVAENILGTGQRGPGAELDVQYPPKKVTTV
Test: ELISA, human CD22 domain1-4-His coated
Reported EC50 (read off the curve) by item:
MEASURED_ATTRIBUTE: EC50 (read off the curve)

>>> test_value("F1.245.2 (antibody, human IgG1, kappa, V domains shown, Human-murine chimeric IgG1, kappa) VH: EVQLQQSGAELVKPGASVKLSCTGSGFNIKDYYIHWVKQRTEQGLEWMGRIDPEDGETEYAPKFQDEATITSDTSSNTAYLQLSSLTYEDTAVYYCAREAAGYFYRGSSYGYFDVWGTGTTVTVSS VL: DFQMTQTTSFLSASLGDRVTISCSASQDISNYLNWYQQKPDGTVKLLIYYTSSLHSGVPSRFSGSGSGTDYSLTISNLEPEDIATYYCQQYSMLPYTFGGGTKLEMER")
"~0.02 nM"
>>> test_value("F1.257.3 (antibody, human IgG1, kappa, V domains shown, Human-murine chimeric IgG1, kappa) VH: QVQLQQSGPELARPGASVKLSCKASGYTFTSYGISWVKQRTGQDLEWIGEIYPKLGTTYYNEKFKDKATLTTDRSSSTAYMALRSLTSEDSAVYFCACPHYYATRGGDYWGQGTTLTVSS VL: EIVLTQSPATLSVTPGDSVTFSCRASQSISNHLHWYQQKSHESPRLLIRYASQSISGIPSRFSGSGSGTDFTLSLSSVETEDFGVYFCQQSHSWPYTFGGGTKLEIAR")
"~0.3 nM"
>>> test_value("F2.343.16 (antibody, human IgG1, lambda, V domains shown, Human-murine chimeric IgG1, lambda) VH: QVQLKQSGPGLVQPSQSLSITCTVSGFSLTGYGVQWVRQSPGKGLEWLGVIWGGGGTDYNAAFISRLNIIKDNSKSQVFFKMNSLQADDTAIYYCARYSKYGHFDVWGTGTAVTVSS VL: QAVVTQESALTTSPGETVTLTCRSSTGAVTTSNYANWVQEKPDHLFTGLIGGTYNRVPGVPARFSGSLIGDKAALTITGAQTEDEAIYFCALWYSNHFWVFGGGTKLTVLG")
"~0.06 nM"
>>> test_value("F2.70.2 (antibody, human IgG1, lambda, V domains shown, Human-murine chimeric IgG1, lambda) VH: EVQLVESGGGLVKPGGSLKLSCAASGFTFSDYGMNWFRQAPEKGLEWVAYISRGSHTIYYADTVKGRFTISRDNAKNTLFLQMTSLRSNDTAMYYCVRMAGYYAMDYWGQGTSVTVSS VL: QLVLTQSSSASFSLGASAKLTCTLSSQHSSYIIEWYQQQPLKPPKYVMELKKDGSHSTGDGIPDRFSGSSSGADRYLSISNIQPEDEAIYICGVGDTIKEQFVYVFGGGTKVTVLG")
"~0.03 nM"
>>> test_value("F1.267.9 (antibody, human IgG1, kappa, V domains shown, Human-murine chimeric IgG1, kappa) VH: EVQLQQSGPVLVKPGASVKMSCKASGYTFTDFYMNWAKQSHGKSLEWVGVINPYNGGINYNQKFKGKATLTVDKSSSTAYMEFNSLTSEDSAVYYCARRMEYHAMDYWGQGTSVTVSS VL: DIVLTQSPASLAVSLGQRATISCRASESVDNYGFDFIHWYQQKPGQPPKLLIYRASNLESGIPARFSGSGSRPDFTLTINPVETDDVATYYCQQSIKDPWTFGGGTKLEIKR")
"~0.2 nM"
>>> test_value("F2.99.1 (antibody, human IgG1, lambda, V domains shown, Human-murine chimeric IgG1, lambda) VH: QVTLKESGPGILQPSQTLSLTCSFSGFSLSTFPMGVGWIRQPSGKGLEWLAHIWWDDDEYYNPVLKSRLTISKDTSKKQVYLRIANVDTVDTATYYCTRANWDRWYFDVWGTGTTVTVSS VL: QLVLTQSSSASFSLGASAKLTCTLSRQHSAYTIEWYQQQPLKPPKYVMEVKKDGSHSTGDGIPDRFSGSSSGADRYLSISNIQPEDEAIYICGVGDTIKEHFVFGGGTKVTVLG")
"~0.05 nM"
>>> test_value("F2.205.9 (antibody, human IgG1, lambda, V domains shown, Human-murine chimeric IgG1, lambda) VH: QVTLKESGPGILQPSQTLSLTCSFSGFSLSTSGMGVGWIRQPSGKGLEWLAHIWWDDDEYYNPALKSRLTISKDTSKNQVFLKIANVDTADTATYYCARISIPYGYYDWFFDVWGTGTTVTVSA VL: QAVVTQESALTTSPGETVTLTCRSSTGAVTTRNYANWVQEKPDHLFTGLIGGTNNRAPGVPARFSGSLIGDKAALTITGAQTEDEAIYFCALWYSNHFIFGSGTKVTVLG")
"~0.04 nM"

Cited source: patent US20240084003A1
